- TARGET SYSTEM: TLR9 (Homo sapiens)
- Sequence (Q9NR96 26-1032): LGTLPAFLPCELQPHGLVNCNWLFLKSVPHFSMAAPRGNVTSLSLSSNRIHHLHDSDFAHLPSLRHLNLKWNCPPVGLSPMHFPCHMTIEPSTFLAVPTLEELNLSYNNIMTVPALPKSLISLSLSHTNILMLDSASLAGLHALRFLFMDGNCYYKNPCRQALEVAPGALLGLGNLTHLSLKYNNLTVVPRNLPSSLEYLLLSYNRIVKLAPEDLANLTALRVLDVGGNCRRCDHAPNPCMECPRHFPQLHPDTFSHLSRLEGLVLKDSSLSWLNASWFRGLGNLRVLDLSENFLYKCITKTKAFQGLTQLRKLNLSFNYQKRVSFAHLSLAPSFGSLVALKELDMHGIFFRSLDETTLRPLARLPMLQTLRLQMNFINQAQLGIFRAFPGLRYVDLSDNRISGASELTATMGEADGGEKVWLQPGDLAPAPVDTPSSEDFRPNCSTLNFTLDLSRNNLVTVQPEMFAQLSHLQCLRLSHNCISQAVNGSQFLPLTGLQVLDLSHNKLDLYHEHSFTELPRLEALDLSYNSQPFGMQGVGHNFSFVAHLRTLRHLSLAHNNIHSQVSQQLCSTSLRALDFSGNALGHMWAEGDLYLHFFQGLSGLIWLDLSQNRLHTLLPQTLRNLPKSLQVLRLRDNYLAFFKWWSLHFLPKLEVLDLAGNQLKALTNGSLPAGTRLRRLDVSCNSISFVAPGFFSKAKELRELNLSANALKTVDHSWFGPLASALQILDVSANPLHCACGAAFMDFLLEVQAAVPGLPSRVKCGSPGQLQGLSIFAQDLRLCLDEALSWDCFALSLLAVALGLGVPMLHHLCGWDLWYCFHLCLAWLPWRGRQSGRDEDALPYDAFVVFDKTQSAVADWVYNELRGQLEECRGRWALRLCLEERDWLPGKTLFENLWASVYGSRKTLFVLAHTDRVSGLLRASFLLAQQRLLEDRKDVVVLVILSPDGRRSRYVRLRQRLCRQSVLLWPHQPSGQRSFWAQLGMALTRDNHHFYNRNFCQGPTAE
- MEASUREMENT PROTOCOL: Subsequent human PBMC assay, DNA-mediated activation of TLR9, IL-6 and IFN-α
- Format: cell-based
- CONDITION DESCRIPTION: human PBMC; ligand ODN2216-Ig; average of donors; read-out: IC50 IFN-α Ave.
QUANTITY MEASURED: pIC50
Please treat pIC50 as minus the base-10 logarithm of the molar concentration.

// pIC50 value for CCN(CCO)CCCC(C)Nc1ccnc2cc(Cl)ccc12 (stereo not shown) [HCQ, hydroxychloroquine, reference compound] : 6.54

###

- TARGET SYSTEM: human TLR8 (Homo sapiens)
- Construct: host or cells: HEK-293, then stably transfected with pNiFty2(NF-kappaB)-luciferase reporter
- Sequence (Q9NR97 27-1041): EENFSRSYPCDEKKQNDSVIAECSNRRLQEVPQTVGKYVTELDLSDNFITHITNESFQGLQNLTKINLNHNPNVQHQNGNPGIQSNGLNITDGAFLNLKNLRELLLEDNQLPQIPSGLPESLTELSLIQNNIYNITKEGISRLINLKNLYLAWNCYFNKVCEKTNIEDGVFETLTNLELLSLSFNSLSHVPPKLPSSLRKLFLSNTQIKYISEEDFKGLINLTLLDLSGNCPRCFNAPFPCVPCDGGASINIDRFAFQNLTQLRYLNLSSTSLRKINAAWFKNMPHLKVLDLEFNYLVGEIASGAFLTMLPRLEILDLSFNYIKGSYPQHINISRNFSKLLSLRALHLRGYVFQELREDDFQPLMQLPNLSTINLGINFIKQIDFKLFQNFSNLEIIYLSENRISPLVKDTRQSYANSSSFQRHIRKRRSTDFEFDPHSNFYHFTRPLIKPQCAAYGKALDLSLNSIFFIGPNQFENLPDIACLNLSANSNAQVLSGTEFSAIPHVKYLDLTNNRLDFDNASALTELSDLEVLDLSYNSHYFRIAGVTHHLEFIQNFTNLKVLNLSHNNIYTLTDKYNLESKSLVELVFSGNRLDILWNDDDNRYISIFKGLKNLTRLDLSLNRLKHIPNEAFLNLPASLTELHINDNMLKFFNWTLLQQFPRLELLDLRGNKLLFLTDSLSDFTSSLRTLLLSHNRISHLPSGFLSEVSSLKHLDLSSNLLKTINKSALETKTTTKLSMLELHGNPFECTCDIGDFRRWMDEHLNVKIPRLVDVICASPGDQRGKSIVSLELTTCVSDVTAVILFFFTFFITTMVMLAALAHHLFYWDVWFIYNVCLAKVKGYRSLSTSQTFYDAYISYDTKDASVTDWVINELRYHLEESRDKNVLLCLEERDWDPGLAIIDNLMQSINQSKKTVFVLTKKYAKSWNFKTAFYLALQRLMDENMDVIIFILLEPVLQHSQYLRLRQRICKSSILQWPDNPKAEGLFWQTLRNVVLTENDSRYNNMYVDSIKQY
- MEASUREMENT PROTOCOL: HEK-293 human TLR8 NF-kappaB luciferase reporter assay (CL097)
- Format: cell-based
- CONDITION DESCRIPTION: HEK-293 assay format; read-out: HEK/hTLR8 IC50
Entries and their IC50
Respond numerically; units are nM and should not be typed.

Known results for molecules:
MOLECULE	ASSAY RESULT
C[C@@H]1CN(c2ccc(C#N)c3ncccc23)C[C@H](CN2CCN(C)CC2)O1	9
CC1CCCCC1NC[C@H]1CN(c2ccc(C#N)c3ncccc23)C[C@@H](C)O1 (stereo partly shown)	0.5
C[C@@H]1CN(c2ccc(C#N)c3ncccc23)C[C@H](CNc2cccnc2)O1	13
CC1CN(c2ccc(C#N)c3ncccc23)CC(CN2CCCC2CO)O1 (stereo not shown)	60
C[C@@H]1CN(c2ccc(C#N)c3ncccc23)C[C@H](CO)O1	101
C[C@@H]1CN(c2ccc(C#N)c3ncccc23)C[C@H](CNC2CCCCCC2)O1	193
C[C@@H]1CN(c2ccc(C#N)c3ncccc23)C[C@H](CN2CCC(O)CC2)O1	66
C[C@@H]1CN(c2ccc(C#N)c3ncccc23)C[C@H](COc2ccccc2)O1	5
C[C@@H]1CN(c2ccc(C#N)c3ncccc23)C[C@H](CNc2ccc(-c3ccccc3)cn2)O1	85
C[C@@H]1CN(c2ccc(C#N)c3ncccc23)C[C@H](CN2CCNCC2)O1	2

// IC50 value for "C[C@@H]1CN(c2ccc(C#N)c3ncccc23)C[C@H](C(=O)CCc2ccccc2)O1" : 5

// IC50 value for "C[C@@H]1CN(c2ccc(C#N)c3ncccc23)C[C@H](COCc2ccccc2)O1" : 5
